- ASSAY COMMENT: Metabolic stability in human liver microsomes assessed as intrinsic clearance
- Type: ADME, Microsome
# microsomal CLint annotations

COMPOUND STRUCTURE | microsomal CLint
CCOC(=O)N(Cc1ccccc1-c1ccccc1)[C@H]1CCNC1 | < 7 µL/min/mg
CCS(=O)(=O)N(Cc1ccccc1-c1ccccc1)[C@H]1CCNC1 | < 7 µL/min/mg
CC(C)C(=O)N(Cc1ccccc1C(F)(F)F)[C@H]1CCNC1 | < 7 µL/min/mg

Challenge: Which microsomal CLint value belongs to CN(C)S(=O)(=O)N(Cc1ccccc1-c1ccccc1)[C@H]1CCNC1 ?
Response given: 16 µL/min/mg

Challenge: Which microsomal CLint value belongs to CC(C)CC(=O)N(Cc1ccccc1-c1ccccc1)[C@H]1CCNC1 ?
Response given: 9 µL/min/mg

Challenge: Which microsomal CLint value belongs to CC(C)S(=O)(=O)N(Cc1ccccc1-c1ccccc1)[C@H]1CCNC1 ?
Response given: 20 µL/min/mg

* * *

- ASSAY COMMENT: Inhibition of sodium channel site 2
ASSAY ENDPOINT: Ki (nM)

COMPOUND STRUCTURE | UOM | Ki
CCOC(=O)N(Cc1ccccc1-c1ccccc1)[C@H]1CCNC1 | nM | 1100

[I] CC(C)C(=O)N(Cc1ccccc1-c1ccccc1)[C@H]1CCNC1
[II] CS(=O)(=O)N(Cc1ccccc1-c1ccccc1)[C@H]1CCNC1
Challenge: From the recorded data, which exceeds the other in Ki: I or II ? Pick one and reply with its label.
Response given: II

* * *

- ASSAY SYSTEM: UniProt P05177
- Sequence (P05177 whole entry): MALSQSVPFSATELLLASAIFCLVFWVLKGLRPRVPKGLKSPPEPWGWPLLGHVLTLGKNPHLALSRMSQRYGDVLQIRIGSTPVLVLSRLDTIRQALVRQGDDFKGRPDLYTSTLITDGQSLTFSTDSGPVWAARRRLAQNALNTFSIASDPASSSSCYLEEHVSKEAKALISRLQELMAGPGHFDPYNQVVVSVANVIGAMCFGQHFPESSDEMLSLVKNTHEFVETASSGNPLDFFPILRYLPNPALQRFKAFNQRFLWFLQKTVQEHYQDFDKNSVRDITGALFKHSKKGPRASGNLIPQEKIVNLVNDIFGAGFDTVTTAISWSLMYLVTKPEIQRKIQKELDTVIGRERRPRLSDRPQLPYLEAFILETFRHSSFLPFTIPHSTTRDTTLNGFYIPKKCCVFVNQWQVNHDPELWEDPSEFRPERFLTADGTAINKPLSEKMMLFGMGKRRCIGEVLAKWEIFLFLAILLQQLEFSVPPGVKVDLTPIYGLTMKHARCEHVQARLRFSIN
- ASSAY COMMENT: Inhibition of CYP1A2 at 3 uM
- Type: ADME
ASSAY ENDPOINT: inhibition at 3 µM

Challenge: Which inhibition at 3 µM value belongs to CC(C)C(=O)N(Cc1cccc(Cl)c1Cl)[C@H]1CCNC1 ?
Response given: < 40%

* * *

- ASSAY SYSTEM: Sodium-dependent serotonin transporter (Homo sapiens)
- Sequence (P31645 whole entry): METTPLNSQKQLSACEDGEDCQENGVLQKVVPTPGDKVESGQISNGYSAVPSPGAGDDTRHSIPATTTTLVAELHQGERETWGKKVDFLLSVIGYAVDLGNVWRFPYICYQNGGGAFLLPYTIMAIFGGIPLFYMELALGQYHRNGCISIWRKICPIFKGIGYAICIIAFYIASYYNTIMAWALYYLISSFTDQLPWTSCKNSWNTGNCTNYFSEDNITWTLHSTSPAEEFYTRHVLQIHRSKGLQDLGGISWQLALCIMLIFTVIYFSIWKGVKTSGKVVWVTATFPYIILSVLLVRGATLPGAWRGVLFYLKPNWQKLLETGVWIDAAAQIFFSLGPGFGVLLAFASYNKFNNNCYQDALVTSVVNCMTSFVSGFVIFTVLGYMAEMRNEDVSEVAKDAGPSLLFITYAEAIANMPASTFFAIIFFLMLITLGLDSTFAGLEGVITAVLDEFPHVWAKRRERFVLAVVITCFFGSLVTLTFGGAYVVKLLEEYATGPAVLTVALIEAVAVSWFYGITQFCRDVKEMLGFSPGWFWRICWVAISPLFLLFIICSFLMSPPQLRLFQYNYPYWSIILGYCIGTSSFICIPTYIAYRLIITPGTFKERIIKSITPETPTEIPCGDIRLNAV
- ASSAY COMMENT: Inhibition of [3H]citalopram uptake at human 5HTT expressed in HEK293 cells by SPA
ASSAY ENDPOINT: Ki (nM)

# annotated cases, reported Ki shown
COMPOUND STRUCTURE | ASSAY SYSTEM | UOM | Ki
CC(C)CC(=O)N(Cc1ccccc1-c1ccccc1)[C@H]1CCNC1 | Sodium-dependent serotonin transporter (Homo sapiens) | nM | 415
CCC(=O)N(Cc1ccccc1-c1ccccc1)[C@H]1CCNC1 | Sodium-dependent serotonin transporter (Homo sapiens) | nM | 2680
CCOC(=O)N(Cc1ccccc1-c1ccccc1)[C@@H]1CCNC1 | Sodium-dependent serotonin transporter (Homo sapiens) | nM | 410
CCCS(=O)(=O)N(Cc1ccccc1-c1ccccc1)[C@H]1CCNC1 | Sodium-dependent serotonin transporter (Homo sapiens) | nM | 5680
CC(C)C(=O)N(Cc1ccccc1Oc1ccccc1)[C@H]1CCNC1 | Sodium-dependent serotonin transporter (Homo sapiens) | nM | 229
CS(=O)(=O)N(Cc1ccccc1-c1ccccc1)[C@@H]1CCNC1 | Sodium-dependent serotonin transporter (Homo sapiens) | nM | 5350
CC(C)OC(=O)N(Cc1ccccc1-c1ccccc1)[C@H]1CCNC1 | Sodium-dependent serotonin transporter (Homo sapiens) | nM | 787
CSc1ccccc1CN([C@H]1CCNC1)S(C)(=O)=O | Sodium-dependent serotonin transporter (Homo sapiens) | nM | 1250

[I] CCOC(=O)N(Cc1ccccc1Oc1ccccc1)[C@H]1CCNC1
[II] CS(=O)(=O)N(Cc1ccccc1Oc1ccccc1)[C@H]1CCNC1
Challenge: From the recorded data, which exceeds the other in Ki: I or II ? Pick one and reply with its label.
Response given: II
